endpoint label: melting point

See these solved cases before continuing.
[
  {
    "compound": "CCC1(c2cc(C3(c4cccc(-c5cncnc5)c4)N=C(N)N(C)C3=O)cs2)OCCO1 (centres unmarked) [Example 114]",
    "melting point": "105 to 112 °C"
  },
  {
    "compound": "CCCn1cc(C2(c3cccc(-c4cccnc4F)c3)N=C(N)N(C)C2=O)cc1C(=O)CC (centres unmarked) [Example 149]",
    "melting point": "118 °C"
  },
  {
    "compound": "CCn1cc(C2(c3cccc(-c4cccnc4F)c3)N=C(N)N(C)C2=O)cc1C(=O)N1CCCCC1 (centres unmarked) [Example 163]",
    "melting point": "111 to 113 °C"
  },
  {
    "compound": "CCC(=O)c1cc(C2(c3cccc(-c4cc(F)cc(F)c4)c3)N=C(N)N(C)C2=O)cn1CC(F)(F)F (centres unmarked) [Example 203]",
    "melting point": "104 to 106 °C"
  },
  {
    "compound": "CCc1cc(C2(c3cccc(-c4cncnc4)c3)N=C(N)N(C)C2=O)c(C)s1 (centres unmarked) [Example 31]",
    "melting point": "128 to 134 °C"
  }
]

Requested read-out: melting point. Entry: CCn1cc(C2(c3cccc(-c4cccnc4F)c3)N=C(N)N(C)C2=O)cc1CO (centres unmarked) [Example 239]
170 to 172 °C

Recorded melting point for CCC(=O)c1cc(C2(c3cccc(OCC(C)C)c3)N=C(N)N(C)C2=O)cn1CC (centres unmarked) [Example 138] , please?
78 °C

Record request: melting point value, item CCC(=O)c1cc(C2(c3ccc(F)c(-c4cccnc4F)c3)N=C(N)N(C)C2=O)cn1CC(F)(F)F (centres unmarked) [Example 207]
122 to 124 °C

* * *

Below, each entry is listed with its recorded melting point.

# count of solved cases: 2
[
  {
    "compound": "CN1C(=O)C(c2cccc(Br)c2)(c2cnn(CC(F)(F)F)c2)N=C1N (centres unmarked) [Example 81]",
    "measured value": "80 to 82 °C"
  },
  {
    "compound": "CN(C)Cc1cc(C2(c3cccc(-c4cccnc4F)c3)N=C(N)N(C)C2=O)cn1CCF (centres unmarked) [Example 238]",
    "measured value": "118 to 121 °C"
  }
]

I have this compound here, CCC(=O)c1cc(C2(c3cccc(-c4cncnc4)c3)N=C(N)N(C)C2=O)cs1 (centres unmarked) [Example 116] , and I need its recorded melting point.
167 to 172 °C

What value of melting point has been reported for the following compound? CCn1cc(C2(c3ccc(F)c(-c4cccnc4F)c3)N=C(N)N(C)C2=O)cc1S(C)(=O)=O (centres unmarked) [Example 188]
193 to 195 °C

Can you share its melting point? I mean this compound: CCC(=O)Nc1cccc(C2(c3cc(C(=O)CC)n(CC)c3)N=C(N)N(C)C2=O)c1 (centres unmarked) [Example 130]
120 to 141 °C

For the compound shown here, COC(=O)c1cc(C2(c3cccc(-c4cc(C#N)ccc4F)c3)N=C(N)N(C)C2=O)cn1CCF (centres unmarked) [Example 195] , give the reported melting point.
147 to 150 °C

Recorded melting point for CN1C(=O)C(c2cccc(-c3cc(F)cnc3Cl)c2)(c2cc(C#N)n(C)c2)N=C1N (centres unmarked) [Example 227] , please?
> 225 °C

Name the recorded melting point for CCOc1ccc(C2(c3cc(C(=O)NC)n(CC)c3)N=C(N)N(C)C2=O)cc1-c1cccnc1F (centres unmarked) [Example 128] .
148 to 150 °C
